Biological target: T1, CD96 extracellular region with His tag (CD96-His) (human, UniProt P40200 22-519)
T1 construct: also called CD96-ECD-His; Bio-CD96-His (biotin-labelled form)
T1 sequence: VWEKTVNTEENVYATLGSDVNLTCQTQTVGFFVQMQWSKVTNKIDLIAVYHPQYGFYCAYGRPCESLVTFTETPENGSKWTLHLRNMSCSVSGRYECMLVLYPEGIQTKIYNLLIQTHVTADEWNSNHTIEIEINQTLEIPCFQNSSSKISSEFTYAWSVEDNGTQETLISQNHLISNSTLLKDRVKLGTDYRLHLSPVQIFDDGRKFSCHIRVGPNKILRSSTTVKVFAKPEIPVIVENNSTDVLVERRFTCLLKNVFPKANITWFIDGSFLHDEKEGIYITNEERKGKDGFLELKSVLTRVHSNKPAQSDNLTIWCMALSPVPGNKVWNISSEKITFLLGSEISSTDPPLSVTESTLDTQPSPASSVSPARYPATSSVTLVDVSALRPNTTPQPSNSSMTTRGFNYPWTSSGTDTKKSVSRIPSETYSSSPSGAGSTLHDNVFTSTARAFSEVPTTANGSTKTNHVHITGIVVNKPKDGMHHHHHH
Assay: blocking cell ELISA: antibody premixed with CD96 antigen (0.5 ug/mL), binding to fixed CD155-CHO cells
METRIC: IC50 (nM)
Reply with just the number (in nM).

BINDER	RECORDED NUMBER
ch1720 (antibody, human IgG4 S228P, kappa, V domains shown, also called chimeric antibody corresponding to m1720) VH: EFQLQQSGPELVKPGASVKISCKASAYSLTDYNMNWVKQSNGKSLEWIGVINPSYGISSYNQKFKGKATLTVDQSSSTAYMHLNSLTSEDSAVYYCARQLRLPGYFDVWGTGTTVTVSS VL: DIKMTQSPSSKNASLGERVTITCKASQDINSYLNWFQQKPGKSPKTLIYRASRLVDGVPSRFSGSGSGQDYSLTISSLEYEDMGIYYCLKYDEFPYTFGGGTKLEIKR	0.149
ch1719 (antibody, human IgG4 S228P, kappa, V domains shown, also called chimeric antibody corresponding to m1719) VH: QVQLKESGPGLVAPSQSLSITCTVSGFSLISYGVSWVRQPPGKGLEWLGVIWGDGNTNYHSVLISRLSIRKDDSKSQVFLKLNSLQTDDTATYYCAKNNYYGSRYGYPMDYWGQGTSVTVSS VL: DIVMTQSHKFMSTSVGDRVSITCKATQDVGTAVAWYQQKPGHSPKLLIYWASTRHTGVPERFTGSGSGTDFTLTIDNVQSEDLADYFCQQYGSSVLTFGAGTKVELRR	0.137

Task: // lookup IC50 for ch1721 (antibody, human IgG4 S228P, kappa, V domains shown, also called chimeric antibody corresponding to m1721) VH: QVQLKESGPGLVAPSQSLSITCTVSGFSLISYGVNWVRQPPGKGLEWLGVIWGDGSTNYHSALISRLSISKDDSKSQVFLNLNSLQTDDTATYYCAKNYFYGSRYGYAMDSWGQGISVTVSS VL: DIQMTQSPASLSAAVGETVTITCRASENIYSSLAWYQQKQGKSPQLLVYNAKTLIETVASRFSGSGSGTQYSLKINSLQPEDFGSFYCQHHYGTPYTFGGGTKLEIKR
Output: 0.214
